target: UniProt P04150; test: Trans-Activation Modulation of Glucocorticoid Receptor (GRAMMER), MMTV-LUC reporter, agonist mode; format: cell-based; design: endogenous in cells; conditions: A549 cells; inflection point; read-out: Transactivation A549 Cells GRAMMER IP
Sequence (P04150 whole entry): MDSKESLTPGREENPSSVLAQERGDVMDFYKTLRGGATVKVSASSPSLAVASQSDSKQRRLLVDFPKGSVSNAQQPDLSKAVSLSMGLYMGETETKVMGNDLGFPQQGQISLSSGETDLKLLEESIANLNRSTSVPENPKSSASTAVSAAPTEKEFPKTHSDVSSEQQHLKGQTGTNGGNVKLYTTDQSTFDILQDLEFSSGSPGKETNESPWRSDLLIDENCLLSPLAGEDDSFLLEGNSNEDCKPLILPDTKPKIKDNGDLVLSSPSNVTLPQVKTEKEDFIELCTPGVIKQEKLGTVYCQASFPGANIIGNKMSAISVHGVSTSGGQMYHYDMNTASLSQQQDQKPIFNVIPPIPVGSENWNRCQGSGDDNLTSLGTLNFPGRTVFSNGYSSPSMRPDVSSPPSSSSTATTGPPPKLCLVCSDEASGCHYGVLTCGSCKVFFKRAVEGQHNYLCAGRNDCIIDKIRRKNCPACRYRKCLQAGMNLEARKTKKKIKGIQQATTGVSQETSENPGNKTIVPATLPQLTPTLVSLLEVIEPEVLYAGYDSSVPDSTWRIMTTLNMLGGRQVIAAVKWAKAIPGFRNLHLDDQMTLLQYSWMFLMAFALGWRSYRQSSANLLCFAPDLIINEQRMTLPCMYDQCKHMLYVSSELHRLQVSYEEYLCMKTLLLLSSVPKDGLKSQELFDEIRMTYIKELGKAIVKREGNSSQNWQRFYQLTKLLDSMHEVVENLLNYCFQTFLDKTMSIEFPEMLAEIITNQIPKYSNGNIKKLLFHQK
recordedEndpoint: EC50 (nM)
Report as a plain number; the unit nM is understood.

Fill in: EC50 of COc1ccccc1CCN(C[C@H]1CCC2=Cc3c(cnn3-c3ccc(F)cc3)C[C@@]21C)S(=O)(=O)CC(F)(F)F [Example 120] is ___
110

Please look up its EC50: C[C@]12Cc3cnn(-c4ccc(F)cc4)c3C=C1CC[C@@H]2CN(CCc1ccc(O)cc1)S(=O)(=O)CC(F)(F)F [Example 130]
369

Look at this molecule and give its reported EC50. C[C@]12Cc3cnn(-c4ccc(F)cc4)c3C=C1CC[C@@H]2CN(CC#N)S(=O)(=O)c1ccc(Oc2ccccn2)cc1 [Example 45]
2890

Reported EC50 for C[C@@H](CN(C[C@H]1CCC2=Cc3c(cnn3-c3ccc(F)cc3)C[C@@]21C)S(=O)(=O)CC(F)(F)F)OS(=O)(=O)CC(F)(F)F [Example 114] : what is it?
161

Value lookup for EC50; key = C[C@]12Cc3cnn(-c4ccc(F)cc4)c3C=C1CC[C@@H]2CN(CCc1ccccc1O)S(=O)(=O)Cc1cccc(C(F)(F)F)c1 [Example 122]
502

// EC50 lookup, key: Cn1cc(S(=O)(=O)N(CC2CCCO2)C[C@H]2CCC3=Cc4c(cnn4-c4ccc(F)cc4)C[C@@]32C)c(C(F)(F)F)n1 (stereo partly drawn) [Example 175]
381
